All values here come from PubChem BioAssay AID1745844.

- Tested on: rodent lifetime carcinogenesis bioassay, tumor incidence TD50
- Experiment notes: carcinogenic potency in animals, long-term in vivo studies, CPDB compilation (AID 1745844)
- Condition label: hamster; strain Syrian Golden; both sexes; by gavage; site: any site (literature study); lesion: several types; types named in the paper; dosed 53 weeks; study length 59 weeks
Measurement name: TD50

Structure notation: C=CCN(CC=C)N=O
Data value: 1.54 mg/kg/day

* * *

- Tested on: rodent lifetime carcinogenesis bioassay, tumor incidence TD50
- Experiment notes: carcinogenic potency in animals, long-term in vivo studies, CPDB compilation (AID 1745844)
- Condition label: rat; strain Fischer 344; males; in feed; site: urinary bladder; lesion: transitional-cell carcinoma + transitional-cell papilloma; dosed 104 weeks; study length 105 weeks
Measurement name: TD50

Structure notation: OCC(CO)(CBr)CBr
Data value: 2320 mg/kg/day

* * *

- Test system: rodent lifetime carcinogenesis bioassay, tumor incidence TD50
- Experiment notes: carcinogenic potency in animals, long-term in vivo studies, CPDB compilation (AID 1745844)
- Condition label: mouse; strain B6C3F1; females; by gavage; site: Harderian gland + pituitary gland, anterior; lesion: adenoma, NOS + carcinoma, NOS; dosed 103 weeks; study length 105 weeks
Measurement name: TD50 (mg/kg/day)

Molecule: CC(I)C1OCC(CO)O1 (stereo unspecified)
Data value: 92.4

* * *

- System: rodent lifetime carcinogenesis bioassay, tumor incidence TD50
- Experiment notes: carcinogenic potency in animals, long-term in vivo studies, CPDB compilation (AID 1745844)
- Condition label: mouse; strain DDD; females; in drinking water; site: liver; lesion: several types; types named in the paper; dosed 52 weeks; study length 52 weeks

Structure notation: NC(=O)Cc1c([O-])on[n+]1Cc1ccccc1
TD50: 10.2 mg/kg/day

* * *

- Tested on: rodent lifetime carcinogenesis bioassay, tumor incidence TD50
- Experiment notes: carcinogenic potency in animals, long-term in vivo studies, CPDB compilation (AID 1745844)
- Condition label: mouse; strain CF-1; females; in drinking water; site: any site (literature study); lesion: several types; types named in the paper; dosed 133 weeks; study length 133 weeks

Structure notation: CCOC(N)=O
TD50 (mg/kg/day): 23.3

* * *

- System: rodent lifetime carcinogenesis bioassay, tumor incidence TD50
- Experiment notes: carcinogenic potency in animals, long-term in vivo studies, CPDB compilation (AID 1745844)
- Condition label: rat; strain F344/DuCrj; males; in feed; site: liver; lesion: hepatocellular carcinoma; dosed 61 weeks; study length 61 weeks

Structure notation: Cc1cnc2ccc3c(nc(N)n3C)c2n1
Assay system: rodent lifetime carcinogenesis bioassay, tumor incidence TD50
TD50: 1.26 mg/kg/day

* * *

- System: rodent lifetime carcinogenesis bioassay, tumor incidence TD50
- Experiment notes: carcinogenic potency in animals, long-term in vivo studies, CPDB compilation (AID 1745844)
- Condition label: mouse; strain C57BL/6JfC3Hf/Nctr x BALB/cStCrlfC3Hf/Nctr; males; in drinking water; site: liver; lesion: hepatocellular carcinoma; dosed 80 weeks; study length 80 weeks

Structure notation: Nc1ccc(-c2ccc(N)cc2)cc1
TD50: 33.2 mg/kg/day

* * *

- System: rodent lifetime carcinogenesis bioassay, tumor incidence TD50
- Experiment notes: carcinogenic potency in animals, long-term in vivo studies, CPDB compilation (AID 1745844)
- Condition label: rat; strain Fischer 344; females; by gavage; site: kidney; lesion: tubular-cell adenocarcinoma; dosed 103 weeks; study length 104 weeks

Structure notation: c1ccc2occc2c1
TD50: 424 mg/kg/day
